# Species: Oryctolagus cuniculus
# runDescription: Alpha-1-adrenergic potency measured in the isolated rabbit ear artery
# Format: functional
readoutName: EC50 (nM)
The reply should be a number in nM, with the unit left off.

molecule COc1ccc(SC)c2c1CC(N)CC2 (stereo unspecified) , EC50 observed: 60
